system: SR leukemia; assay: NCI tumour cell line growth inhibition, 48 h
OUTCOME_MEASURE: TGI (µM)
Number in µM, nothing else.

CCOC(=O)[C@H]1C[C@]23CN(C(=O)OC(C)(C)C)CC[C@H]2CCC2(SCCCS2)[C@@H]3N1C : 76.5

We now examine a further compound.
Request: Consider the compound shown here: COc1cc(C2C(Cl)C(=O)N2NC(=O)Cc2ccccc2)ccc1O (stereo not drawn) What is its recorded TGI?
Response: 83.4

---

tested on: KM12 colon; assay: NCI tumour cell line growth inhibition, 48 h
Listed here: items and their measured GI50.

Cc1cc2c(C(C)C)c(O)c(O)c(C=O)c2c(O)c1-c1c(C)cc2c(C(C)C)c(O)c(O)c(C=O)c2c1O (tested in a mixture with another compound) : 394 nM
CC[C@H](C)[C@H](NC(=O)C12CC(NC(C)=O)(C1)C2)C(=O)N(C)[C@H](C[C@@H](OC(C)=O)c1nc(C(=O)N[C@@H](Cc2ccccc2)C[C@H](C)C(=O)OC)cs1)C(C)C : 296 nM
COc1cc(C2C(C#N)=C(N)Oc3cc4c(cc32)OCO4)cc2c1OCO2 (configuration not stated) : 206 nM
C=C1CO[C@@H]2C[C@@H]1CC/C(C)=C/CC/C(C)=C/CC[C@@]2(C)O : 17400 nM
COc1cc(/C=C/C(=O)c2ccc(Nc3nc(Nc4ccccc4)nc(Nc4ccc(Cl)cc4)n3)cc2)cc(OC)c1OC : 8830 nM

Request: I have this compound here, `CN(C)CCOc1nc2ccccc2c2c1-c1ccc(Cl)cc1C2=O` , and I need its recorded GI50.
Response: 441 nM

Request: Bench note: what GI50 did C[C@@H](Oc1cc(-c2cnn(C3CC4(CCCNC4)C3)c2)cnc1N)c1c(Cl)ccc(F)c1Cl (some centres not stated) show?
Response: 48.5 nM

Ref: PubChem BioAssay (NCI)
